Biological target: FGFR4 (h) (Homo sapiens, UniProt P22455)
Sequence (P22455 22-802): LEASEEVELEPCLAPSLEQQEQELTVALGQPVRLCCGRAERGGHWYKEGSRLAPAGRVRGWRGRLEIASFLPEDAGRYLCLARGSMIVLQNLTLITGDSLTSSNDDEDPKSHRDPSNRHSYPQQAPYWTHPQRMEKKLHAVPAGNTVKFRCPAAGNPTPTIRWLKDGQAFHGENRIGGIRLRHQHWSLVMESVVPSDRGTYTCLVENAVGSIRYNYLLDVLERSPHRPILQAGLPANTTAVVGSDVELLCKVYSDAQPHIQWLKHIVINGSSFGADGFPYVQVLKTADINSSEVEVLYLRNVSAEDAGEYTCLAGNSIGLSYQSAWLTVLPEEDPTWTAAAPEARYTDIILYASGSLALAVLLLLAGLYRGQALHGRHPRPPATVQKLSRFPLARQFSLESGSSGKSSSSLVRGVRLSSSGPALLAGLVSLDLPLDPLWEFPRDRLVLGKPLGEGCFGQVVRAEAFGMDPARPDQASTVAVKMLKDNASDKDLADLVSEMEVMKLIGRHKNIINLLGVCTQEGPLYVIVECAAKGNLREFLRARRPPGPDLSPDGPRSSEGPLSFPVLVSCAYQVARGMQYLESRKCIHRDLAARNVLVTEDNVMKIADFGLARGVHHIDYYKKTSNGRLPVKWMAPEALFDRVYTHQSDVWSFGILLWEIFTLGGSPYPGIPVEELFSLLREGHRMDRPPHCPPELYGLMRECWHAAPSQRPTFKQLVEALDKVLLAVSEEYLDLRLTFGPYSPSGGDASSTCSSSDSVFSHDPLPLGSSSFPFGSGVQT
Assay: FGFR4 (enzymatic assay), TR-FRET
Type: biochemical
Conditions: read-out: FGFR 4 pIC50 (converted)
OBSERVATION TYPE: IC50 (nM)

Below, 4 compounds whose answers are already recorded.
| COMPOUND | TEST TARGET | U | IC50 |
| --- | --- | --- | --- |
| COc1cc(OC)cc(N(CCNC(C)C)c2ccc3ncc(-c4ccnc(C(=O)NCCCN)c4)nc3c2)c1 [Compound 146] | FGFR4 (h) (Homo sapiens, UniProt P22455) | nM | 49 |
| COc1cc(OC)cc(N(CCCNCC(F)(F)F)c2ccc3ncc(-c4ccnc(Cl)c4)nc3c2)c1 [Compound 145] | FGFR4 (h) (Homo sapiens, UniProt P22455) | nM | 871 |
| COC(=O)C1CCCN1c1cnc2ccc(N(CCO)c3cc(OC)cc(OC)c3)cc2n1 (stereo not shown) [Compound 172] | FGFR4 (h) (Homo sapiens, UniProt P22455) | nM | 417 |
| COc1cc(OC)cc(N(CC2CC2)c2ccc3ncc(-c4nnn[nH]4)nc3c2)c1 [Compound 41] | FGFR4 (h) (Homo sapiens, UniProt P22455) | nM | 79.4 |

A = COc1cc(OC)cc(N(CCCO)c2ccc3ncc(-c4ccnc(Cl)c4)nc3c2)c1 [Compound 136]
B = COc1cc(OC)cc(N(CCO)c2ccc3ncc(-c4cccnc4)nc3c2)c1 [Compound 9]
C = COCC(CN(c1cc(OC)cc(OC)c1)c1ccc2ncc(-c3cccnc3)nc2c1)OC(C)=O (single isomer, unassigned) [Compound 52]
D = CO/N=C(\C)c1cnc2ccc(N(CCO)c3cc(OC)cc(OC)c3)cc2n1 [Compound 29]
Please list the entries, largest IC50 first. # the answer lists labels in the order requested
C, D, A, B

====

Biological target: FGFR2 (h) (Homo sapiens)
Sequence (P21802 22-821): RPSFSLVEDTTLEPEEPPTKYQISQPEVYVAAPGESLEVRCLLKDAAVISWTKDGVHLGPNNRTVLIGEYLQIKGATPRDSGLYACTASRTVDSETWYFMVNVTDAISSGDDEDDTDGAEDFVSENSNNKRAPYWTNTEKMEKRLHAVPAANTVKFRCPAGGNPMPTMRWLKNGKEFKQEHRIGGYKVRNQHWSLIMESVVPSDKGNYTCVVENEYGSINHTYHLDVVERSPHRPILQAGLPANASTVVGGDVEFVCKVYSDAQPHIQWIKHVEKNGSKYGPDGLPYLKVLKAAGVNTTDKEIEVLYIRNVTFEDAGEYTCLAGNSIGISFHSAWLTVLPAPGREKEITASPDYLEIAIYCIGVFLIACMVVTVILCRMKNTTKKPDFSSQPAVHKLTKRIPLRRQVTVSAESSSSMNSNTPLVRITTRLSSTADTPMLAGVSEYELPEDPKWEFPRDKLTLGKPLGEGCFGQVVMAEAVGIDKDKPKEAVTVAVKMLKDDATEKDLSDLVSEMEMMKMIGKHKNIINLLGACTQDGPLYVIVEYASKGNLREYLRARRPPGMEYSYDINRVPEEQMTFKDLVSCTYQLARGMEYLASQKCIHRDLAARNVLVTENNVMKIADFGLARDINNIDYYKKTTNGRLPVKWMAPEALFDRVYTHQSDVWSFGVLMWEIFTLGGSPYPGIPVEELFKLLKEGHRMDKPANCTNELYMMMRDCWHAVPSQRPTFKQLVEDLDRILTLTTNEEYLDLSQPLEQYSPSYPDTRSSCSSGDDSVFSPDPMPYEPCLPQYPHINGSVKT
Assay: FGFR2 (enzymatic assay), TR-FRET
Type: biochemical
Details: read-out: FGFR 2 pIC50 (converted)
OBSERVATION TYPE: IC50 (nM)

| MOLECULE | U | IC50 |
| --- | --- | --- |
| COc1cc(OC)cc(N(CCO)c2ccc3ncc(-n4cnc(CO)c4)nc3c2)c1 [Compound 38] | nM | 25.7 |
| COc1cc(OC)cc(N(CCCNCC(F)(F)F)c2ccc3ncc(-c4ccc(N(C)C(=O)OC(C)(C)C)nc4)nc3c2)c1 [Compound 127] | nM | 363 |
| COc1cc(OC)cc(N(CCO)c2ccc3ncc(C4=CCN(C(=O)OC(C)(C)C)C4)nc3c2)c1 [Compound 173] | nM | 32.4 |

I = COc1cc(OC)cc(N(CCCNCC(=O)O)c2ccc3ncc(-c4ccnc(C(=O)NCCCCN)c4)nc3c2)c1 [Compound 44]
II = COc1cc(OC)cc(N(CC2CC2)c2ccc3ncc(-c4ccn[nH]4)nc3c2)c1 [Compound 58]
III = COc1cc(OC)cc(N(CCCO)c2ccc3ncc(-c4ccnc(C(=O)NCCOCCO)c4)nc3c2)c1 [Compound 186]
IV = COc1cc(OC)cc(N(CCO)c2ccc3ncc(-c4ccc(N5CCNCC5)cc4)nc3c2)c1 [Compound 166]
V = COc1cc(OC)cc(N(CC2CC2)c2ccc3ncc(-c4cnc5[nH]ccc5c4)nc3c2)c1 [Compound 88]
Write the entries in order, lowest recorded IC50 first. # the answer lists labels in the order requested
IV, I, III, II, V
(IV: 3.63 nM, I: 11 nM, III: 36.3 nM, II: 537 nM, V: 1150 nM)

A = CNc1ccc(-c2cnc3ccc(N(CCCO)c4cc(OC)cc(OC)c4)cc3n2)cn1 [Compound 116]
B = COc1cc(OC)cc(N(CCCO)c2ccc3ncc(-c4cccnc4F)nc3c2)c1 [Compound 149]
// pick larger IC50 from pair: A vs B Reply with the label of the item you choose.
B

A = COc1cc(OC)cc(N(CCCO)c2ccc3ncc(-c4ccnc(N)c4)nc3c2)c1 [Compound 66]
B = COc1cc(OC)cc(N(CCCNC(C)C)c2ccc3ncc(-c4ccnc(NC(=O)OC(C)(C)C)c4)nc3c2)c1 [Compound 137]
Of A and B , which shows the smaller IC50 value? Reply with the label of the item you choose.
A
